# targetOrSystem: rP2X2 K69C/H319K double mutant (Rattus norvegicus, UniProt P49653, H319K/K69C)
# Sequence (P49653 whole entry K69C/H319K): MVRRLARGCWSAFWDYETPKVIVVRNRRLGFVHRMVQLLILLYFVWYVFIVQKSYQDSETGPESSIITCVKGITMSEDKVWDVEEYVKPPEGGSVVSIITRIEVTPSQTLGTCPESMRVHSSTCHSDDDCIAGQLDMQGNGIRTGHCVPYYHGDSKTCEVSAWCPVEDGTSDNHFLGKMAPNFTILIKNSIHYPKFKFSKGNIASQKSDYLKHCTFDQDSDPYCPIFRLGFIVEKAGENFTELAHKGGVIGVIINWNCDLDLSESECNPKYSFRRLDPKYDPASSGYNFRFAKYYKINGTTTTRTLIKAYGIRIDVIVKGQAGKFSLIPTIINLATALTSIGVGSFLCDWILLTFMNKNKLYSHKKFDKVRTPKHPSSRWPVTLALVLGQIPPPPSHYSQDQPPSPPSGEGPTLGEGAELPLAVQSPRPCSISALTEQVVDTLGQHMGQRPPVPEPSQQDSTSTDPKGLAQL
# experimentalProtocol: Two-electrode voltage clamp of Xenopus oocytes expressing K69C/H319K double mutant rP2X2
pEC50: −log10 of the molar value.
quantityKind: pEC50

Endpoint output: pEC50 of Nc1ncnc2c1ncn2C1OC(COP(=O)(O)OP(=O)(O)OP(=O)(O)O)C(O)C1O (stereo not shown) [ATP, Disodium ATP] . Value? ~3.84

----------
# targetOrSystem: rP2X2 K308C mutant receptor (Rattus norvegicus, UniProt P49653, K308C)
# Sequence (P49653 whole entry K308C): as the sequence (P49653 whole entry K69C/H319K) above, with C69K, K308C, K319H counted along it
# experimentalProtocol: Two-electrode voltage clamp of Xenopus oocytes expressing K308C mutant rP2X2
# conditionParameters: MTSEA-modified K308C
quantityKind: pEC50
Answer as the number alone; pEC50 is minus log10 of concentration in mol/L.

Would you kindly share the measured pEC50 for Nc1ncnc2c1ncn2C1OC(COP(=O)(O)OP(=O)(O)OP(=O)(O)O)C(O)C1O (stereo not shown) [ATP, Disodium ATP] ? 3.43

Recorded values, source paper PMC3480388.
